# experiment-description: Growth inhibition of human HONE1 cells
# Type: functional
Please map values of GI50 to classes as shown: LOW = under 1000 nM, MEDIUM = from 1000 nM up to 4000 nM, HIGH = 4000 nM and over

molecule	classification
CCN1CCc2c(c3cc(OC)c(OC)cc3c3c(OC)c(OC)c(OC)cc23)C1	MEDIUM
CCN1Cc2c(c3cc(OC)c(OC)cc3c3cc(OC)c(OC)cc23)C(O)C1 (stereo not given)	LOW
COc1cc2c3c(c4cc(OC)c(OC)cc4c2cc1OC)CN(CC(C)C)CC3	MEDIUM

[Q] Band for COc1cc2c3c(c4cc(OC)c(OC)cc4c2cc1OC)CN1CCCCC1C3 (stereo not given) ?
[A] LOW

[Q] Band for "CCCN1CCc2c(c3cc(OC)c(OC)cc3c3c(OC)c(OC)c(OC)cc23)C1" ?
[A] LOW
